System: Pasteurella multocida PM 10775 (080130003051, BRD field isolate)
Assay: MIC, broth-microdilution (CLSI VET01-A4), strain PM 10775
Assay type: cell-based
Details: Pasteurella multocida strain PM 10775, broth-microdilution; unit assumed
Protocol: For example, representative compounds were tested against ***, Mannheimia haemolytica and Pasteurella multocida, using the conventional broth-dilution assay. The Minimum inhibitory concentrations (MIC) of compounds according to the invention for a number of veterinary bacterial pathogens were determined by the broth-microdilution method according to CLSI document VET01-A4. Microdilution trays containing a doubling dilution series of the test compound were used for the tests. […]
Consider the following compounds and their measured MIC PM 10775 readings.
I only need the number, in µg/mL, no unit after it.

compound="CC(C)[C@H](NC(=O)c1ccc(C#Cc2cccc(CNCc3ccncc3)c2)cc1)C(=O)NO [Compound 46]" units=µg/mL observed_result=0.2

Shift focus to the following entry.
Problem: Check the records and state MIC PM 10775 for CCN(CC)Cc1ccc(C#Cc2ccc(C(=O)N[C@@H](CO)C(=O)NO)cc2)cc1 [Compound 76]
Result: 0.2

---

Test system: Pasteurella multocida PM 10775 (080130003051, BRD field isolate)
Assay: MIC, broth-microdilution (CLSI VET01-A4), strain PM 10775
Format: cell-based
Settings: Pasteurella multocida strain PM 10775, broth-microdilution; unit assumed
Quantity Measured: MIC PM 10775

Worked examples, 5 molecules total:
molecule=C=CCNCc1ccc(C#Cc2ccc(C(=O)N[C@H](C(=O)NO)C(C)(C)O)cc2)cc1 observed_result="≤ 0.1 µg/mL"
molecule=Cc1ccc(CNCc2ccc(C#Cc3ccc(C(=O)N[C@H](C(=O)NO)C(C)C)cc3)cc2)cc1 observed_result="≤ 0.1 µg/mL"
molecule=CCNCc1ccc(C#Cc2ccc(C(=O)N[C@H](C(=O)NO)[C@@H](C)CC)cc2)cc1 observed_result="≤ 0.1 µg/mL"
molecule="CC(C)(C(NC(=O)c1ccc(C#Cc2ccc(CNCc3ccccc3)cc2)cc1)C(=O)NO)[N+](=O)[O-] (stereo not shown)" observed_result="≤ 0.1 µg/mL"
molecule=CC(C)([C@H](NC(=O)c1ccc(C#Cc2ccc(CN3CCCC3)cc2)cc1)C(=O)NO)S(C)(=O)=O observed_result="≤ 0.1 µg/mL"

Problem: Tell me its MIC PM 10775 on Pasteurella multocida PM 10775 (080130003051, BRD field isolate): COCCNCc1ccc(C#Cc2ccc(C(=O)N[C@H](C(=O)NO)C(C)=NOC)cc2)cc1
Result: 1.6 µg/mL

Problem: Tell me its MIC PM 10775 on Pasteurella multocida PM 10775 (080130003051, BRD field isolate): Cc1cnc(CNCc2ccc(C#Cc3ccc(C(=O)N[C@H](C(=O)NO)C(C)(C)S(C)(=O)=O)cc3)s2)o1
Result: ≤ 0.1 µg/mL

---

Tested on: Pasteurella multocida PM 10775 (080130003051, BRD field isolate)
Test: MIC, broth-microdilution (CLSI VET01-A4), strain PM 10775
Type: cell-based
Conditions: Pasteurella multocida strain PM 10775, broth-microdilution; unit assumed
Consider the following molecules and their measured MIC PM 10775 readings.

molecule="CC[C@H](C)[C@H](NC(=O)c1ccc(C#Cc2ccc(CN3CCOCC3)cc2)cc1)C(=O)NO [Compound 119]" observed_result="≤ 0.1 µg/mL"
molecule="CC(=O)C(NC(=O)c1ccc(C#Cc2ccc(CNCC3CCCO3)cc2)cc1)C(=O)NO (stereo not shown) [Compound 413]" observed_result="0.4 µg/mL"
molecule="CSC(C)(C)[C@H](NC(=O)c1ccc(C#Cc2ccc(CN3CCCC3)cc2)cc1)C(=O)NO [Compound 242]" observed_result="0.2 µg/mL"
molecule="C=CCNCc1ccc(C#Cc2ccc(C(=O)N[C@H](C(=O)NO)C(C)(C)S(C)(=O)=O)cc2)cc1 [C.256]" observed_result="≤ 0.1 µg/mL"
molecule="CC(C)(C(NC(=O)c1ccc(C#Cc2ccc(CNCc3cccnc3)cc2)cc1)C(=O)NO)[N+](=O)[O-] (stereo not shown) [Compound 286]" observed_result="≤ 0.1 µg/mL"

Problem: Check the records and state MIC PM 10775 for CC(C)[C@H](NC(=O)c1ccc(C#Cc2ccc(CN3CCOCC3)cc2)cc1)C(=O)NO [Compound 98]
Result: ≤ 0.1 µg/mL

Problem: Check the records and state MIC PM 10775 for CC(C)(C(NC(=O)c1ccc(C#Cc2ccc(CNCc3ccncc3)cc2)cc1)C(=O)NO)[N+](=O)[O-] (stereo not shown) [Compound 278]
Result: ≤ 0.1 µg/mL

---

System: Pasteurella multocida PM 10775 (080130003051, BRD field isolate)
Assay: MIC, broth-microdilution (CLSI VET01-A4), strain PM 10775
Format: cell-based
Conditions: Pasteurella multocida strain PM 10775, broth-microdilution; unit assumed
Quantity Measured: MIC PM 10775

compound="CC(C)(C(NC(=O)c1ccc(C#Cc2ccc(CNCc3ccccn3)cc2)cc1)C(=O)NO)[N+](=O)[O-] (stereo not shown) [Compound 282]" observed_result="0.4 µg/mL"
compound="CSC(C)(C)[C@H](NC(=O)c1ccc(C#Cc2ccc(CNCc3ccco3)nc2)cc1)C(=O)NO [Compound 344]" observed_result="≤ 0.1 µg/mL"
compound="O=C(N[C@@H](CO)C(=O)NO)c1ccc(C#Cc2ccc(CN3CCCC3)cc2)cc1 [Compound 145]" observed_result="0.2 µg/mL"
compound="CON=C(C)[C@H](NC(=O)c1ccc(C#Cc2ccc(CNCc3ccco3)cc2)cc1)C(=O)NO [Compound 391]" observed_result="0.4 µg/mL"
compound="CC[C@H](C)[C@H](NC(=O)c1ccc(C#Cc2ccc(CNCc3ccccc3)cc2)cc1)C(=O)NO [Compound 126]" observed_result="≤ 0.1 µg/mL"

Problem: Check the records and state MIC PM 10775 for CCCNCc1ccc(C#Cc2ccc(C(=O)N[C@@H](CO)C(=O)NO)cc2)cc1 [Compound 152]
Result: 0.2 µg/mL

Problem: Check the records and state MIC PM 10775 for CC(C)(O)[C@H](NC(=O)c1ccc(C#Cc2ccc(CNCc3ccco3)cc2)cc1)C(=O)NO [Compound 231]
Result: ≤ 0.1 µg/mL

Problem: Check the records and state MIC PM 10775 for CC(C)[C@H](NC(=O)c1ccc(C#Cc2ccc(CNC3CCCCC3)cc2)cc1)C(=O)NO [Compound 208]
Result: ≤ 0.1 µg/mL

---

Consider the following molecules and their measured MIC PM 10775 readings.
System: Pasteurella multocida PM 10775 (080130003051, BRD field isolate)
Experiment: MIC, broth-microdilution (CLSI VET01-A4), strain PM 10775
Type: cell-based
Conditions: Pasteurella multocida strain PM 10775, broth-microdilution; unit assumed

Worked examples, 3 molecules total:
molecule="CC[C@H](C)[C@H](NC(=O)c1ccc(C#Cc2ccc(CN(C)CCOC)cc2)cc1)C(=O)NO [Compound 178]" observed_result="≤ 0.1 µg/mL"
molecule="O=C(N[C@@H](CO)C(=O)NO)c1ccc(C#Cc2ccc(CNCc3nccs3)cc2)cc1 [Compound 213]" observed_result="≤ 0.1 µg/mL"
molecule="COCCN(C)Cc1ccc(C#Cc2ccc(C(=O)N[C@@H](CO)C(=O)NO)cc2)cc1 [Compound 154]" observed_result="≤ 0.1 µg/mL"

Problem: Check the records and state MIC PM 10775 for COCC(C)NCc1ccc(C#Cc2ccc(C(=O)N[C@H](C(=O)NO)C(C)C)cc2)cc1 (stereo partly shown) [Compound 198]
Result: ≤ 0.1 µg/mL

Problem: Check the records and state MIC PM 10775 for CSC(C)(C)[C@H](NC(=O)c1ccc(C#Cc2ccc(CNCc3ccncc3)cc2)cc1)C(=O)NO [Compound 241]
Result: ≤ 0.1 µg/mL

Problem: Check the records and state MIC PM 10775 for O=C(N[C@@H](CO)C(=O)NO)c1ccc(C#Cc2ccc(CNCc3ccnc(Cl)c3)cc2)cc1 [Compound 214]
Result: ≤ 0.1 µg/mL

---

Tested on: Pasteurella multocida PM 10775 (080130003051, BRD field isolate)
Experiment: MIC, broth-microdilution (CLSI VET01-A4), strain PM 10775
Assay type: cell-based
Details: Pasteurella multocida strain PM 10775, broth-microdilution; unit assumed
Consider the following molecules and their measured MIC PM 10775 readings.
I only need the number, in µg/mL, no unit after it.

test_smiles=CC[C@H](C)[C@H](NC(=O)c1ccc(C#Cc2ccc(CN(C)Cc3ccccc3)cc2)cc1)C(=O)NO quantity_measured="MIC PM 10775" observed_result=0.4
test_smiles=COc1ccc(CNCc2ccc(C#Cc3ccc(C(=O)N[C@@H](C(C)=O)C(=O)NO)cc3)cc2)cc1 quantity_measured="MIC PM 10775" observed_result=1.6
test_smiles=COCCNCc1ccc(C#Cc2ccc(C(=O)N[C@@H](C(C)=O)C(=O)NO)cc2)cc1 quantity_measured="MIC PM 10775" observed_result=3.1
test_smiles=CC(=O)[C@H](NC(=O)c1ccc(C#Cc2ccc(CNC3CC3)cc2)cc1)C(=O)NO quantity_measured="MIC PM 10775" observed_result=0.8

Problem: Check the records and state MIC PM 10775 for CON=C(C)[C@H](NC(=O)c1ccc(C#Cc2ccc(CNCc3ccnc(Cl)c3)cc2)cc1)C(=O)NO
Result: 0.4
